- System: K-562 leukemia
- method-description: NCI-60 one-dose screen, 48 h (100 = growth as untreated, 0 = no growth, -100 = all killed)
- run-parameters: 10 µM unless noted
About 83,000 compounds went through this panel and 20% of them were active in at least one assay; those are over-represented in the sample as a whole.
Give growth for every item shown.
Answers are plain numbers, in %.

For every item below, please supply its growth.
1. COc1cc2cc(Oc3ccc(NC(=O)Nc4cccc(C(F)(F)F)c4)cc3)c(C)nc2cc1OCCN(C)C
2. C=C(C)[C@@H]1CC[C@]2(C)[C@H](CC=C3[C@@H]4CC(C)(C)CC[C@]4(C(=O)NCC#CCN4CCN(C)CC4)CC[C@]32C)[C@@]1(C)CCC#N

1: 10; 2: -7.15

====

- Tested on: HCT-15 colon
- method-description: NCI-60 one-dose screen, 48 h
- run-parameters: 10 µM unless noted
Compounds without any hit were thinned out: in the full panel of roughly 83,000, 20% have a hit. Calls of active or inactive are those of the source. How the source made its calls: active means growth percent below 10; inactive means the rest.
The categories you may choose from are active, inactive

>>> class_label("COc1cc(CNC(=O)/C=C/c2ccccc2)ccc1OCC(=O)NO")
"inactive"

Any idea what this test logged for COc1cc2c3c(n(CCCNC4CCCC4)c(=O)c2cc1OC)-c1cc2c(cc1C3=O)OCO2 ?
active

Any idea what this test logged for COc1cc(C(=O)c2cc(C(C)=O)c3c4ccccc4ccn23)cc(OC)c1OC ?
inactive

Any idea what this test logged for O=c1c2c(O)cccc2oc2c3c(cc(O)c12)O[C@H]1OC=C[C@@H]31 ?
inactive

Any idea what this test logged for CS(=O)(=O)c1nccc(-c2c(-c3ccc(F)c(OCc4ccc(F)cc4)c3)nc3sccn23)n1 ?
inactive

====

- Tested on: CCRF-CEM leukemia
- method-description: NCI-60 one-dose screen, 48 h
- run-parameters: 10 µM unless noted
The panel holds about 83,000 compounds, 20% with a hit somewhere; the sample as a whole holds those more often. Active and inactive are the calls of the source. Rule for the calls: active = growth percent below 10; inactive = the rest.
The categories you may choose from are T for active, F for inactive

Previously resolved entries follow.
>>> class_label("COc1ccc(-c2no[n+]([O-])c2Nc2ccccc2Br)cc1")
"F"
>>> class_label("CCC(C)[C@H]1OC(=O)[C@H](C(C)C)N(C)C(=O)[C@@H](C(C)C)OC(=O)[C@H](C(C)C)N(C)C(=O)[C@@H](C(C)CC)OC(=O)[C@H](C(C)C)N(C)C1=O (some centres not stated)")
"T"
>>> class_label("COc1ccccc1/C=C/C=N/NC1=NC2C(S1)N(C)C(=O)N2c1ccccc1 (configuration not stated)")
"F"
>>> class_label("CC(C)Sc1nc(NC2CC2)c(C#N)c(-c2ccccc2)n1")
"F"
>>> class_label("CNC(=O)c1c(NC(=O)c2ccc(F)cc2F)sc2c1CCC(=O)C2")
"T"
>>> class_label("O=C(CSc1ccc(-c2nc3ccccc3[nH]2)cn1)N1CCN(c2ccccc2F)CC1")
"F"

Any idea what this test logged for CS(=O)c1nccc(-c2c(-c3ccc(F)c(OCc4ccc(F)cc4)c3)nc3sccn23)n1 (configuration not stated) ?
F

Any idea what this test logged for Cc1ccc(-c2cc(-c3cccc4ccccc34)n3c(n2)nc2ccccc23)cc1 ?
F

Any idea what this test logged for COc1cc(-c2nc(SCc3ccc(C)cc3)[nH]c(=O)c2C#N)ccc1OCc1ccccc1 ?
F

Any idea what this test logged for CCNC(=O)Oc1ccc(/C(=C(/C)c2ccc(Cl)cc2)c2ccc(OCCN(C)C)cc2)cc1 ?
F

Any idea what this test logged for COC[C@@]1(C)CC[C@]2(C)CC[C@]3(C)C(=CC[C@@H]4[C@@]5(C)CCCNC(C)(C)[C@@H]5CC[C@]43C)C2C1 (some centres not stated) ?
F

Any idea what this test logged for CCn1c2ccc(/C=N/NS(=O)(=O)CCN(C)C)cc2c2cc(/C=N/NS(=O)(=O)CCN(C)C)ccc21 ?
F

====

- System: NCI-H23 lung
- method-description: NCI-60 one-dose screen, 48 h
- run-parameters: 10 µM unless noted
The panel holds about 83,000 compounds, 20% with a hit somewhere; the sample as a whole holds those more often. Activity calls are given as the source filed them. Rule for the calls: active = growth percent below 10; inactive = the rest.
The categories you may choose from are active, inactive

Previously resolved entries follow.
>>> class_label("c1ccc(-c2n(Cc3ccc4ccccc4c3)c3c4ccccc4c4ccccc4c3[n+]2Cc2ccc3ccccc3c2)cc1")
"active"
>>> class_label("CCOC(=O)c1nn(-c2ccccc2)c(=O)c2c(N)c(C#N)c(-c3cccs3)cc12")
"inactive"
>>> class_label("O=C(Nc1cc(Cl)cc(Cl)c1)Nc1ccc2oc(=O)ccc2c1")
"active"
>>> class_label("COc1ccc(C(=O)c2c(N)c(C#N)cn2-c2cccc(OC)c2)cc1")
"inactive"

Now turn to the next compound.
Any idea what this test logged for O=C(Nc1ccccc1)Nc1nc2ccc([N+](=O)[O-])cc2s1 ?
active

====

- Test system: UO-31 renal
- method-description: NCI-60 one-dose screen, 48 h (100 = growth as untreated, 0 = no growth, -100 = all killed)
- run-parameters: 10 µM unless noted
About 83,000 compounds went through this panel and 20% of them were active in at least one assay; those are over-represented in the sample as a whole. Active and inactive are the calls of the source. The calls were made as follows: active = growth percent below 10; inactive = the rest.
measured-metric: growth

>>> result("C#C[C@]1(O)CC[C@H]2[C@@H]3CC=C4c5sc(-c6ccc(OC)cc6)nc5CC[C@]4(C)[C@H]3CC[C@@]21C")
"18.9% (inactive)"
>>> result("N/C(=N\\c1nc2c(Cl)cccc2s1)C(Cl)(Cl)Cl")
"61% (inactive)"
>>> result("O=c1oc2ccc(-c3ccc(F)cc3F)cc2c(=O)n1-c1cccc(C(F)(F)F)c1")
"-18.5% (active)"
>>> result("C=CCn1c(SCC(=O)Nc2ccc(OC)cc2)nnc1-c1ccc(Cl)cc1")
"73.5% (inactive)"

For every item below, please supply its growth.
1. CCOC(=O)c1c(NC(=O)c2cccc(C(F)(F)F)c2)sc2c(CN3CCN(C)CC3)c(O)ccc12
2. Cc1ccccc1/C=C/c1nn2c(-c3ccoc3C)nnc2s1
3. N#Cc1c(NC(=O)c2ccccc2C(F)(F)F)sc2c1CCC(=O)C2
4. O=C1/C(=C/c2ccccc2[N+](=O)[O-])Oc2ccc(O)cc21
5. O=C(Cn1cc(CN2C(=O)c3ccc([N+](=O)[O-])cc3C2=O)nn1)Nc1ccccc1Br
6. O=C(CCCCCCN1CC(=O)N2[C@@H](c3cccc(Cl)c3)c3[nH]c4ccccc4c3C[C@H]2C1=O)NO
7. N#Cc1c(NC(=O)c2ccc(F)c(Cl)c2)sc2c1CCC(=O)C2
8. C#C[C@]1(O)CC[C@H]2[C@@H]3CC=C4c5sc(Nc6cccc(C)n6)nc5CC[C@]4(C)[C@H]3CC[C@@]21C

1. -95% (active)
2. 85.4% (inactive)
3. -25.2% (active)
4. 21.4% (inactive)
5. 88.1% (inactive)
6. 60.3% (inactive)
7. -99% (active)
8. -15.4% (active)

For every item below, please supply its growth.
1. COc1ccc(Cn2cc3c(c2-c2ccccc2)CCCc2cnoc2-3)cc1[N+](=O)[O-]
2. C=C1C(=O)O[C@@H]2C[C@@H](C)/C=C\C(=O)[C@](C)(OC(C)=O)C[C@H](OC(=O)/C(C)=C\C)[C@@H]12
3. O=C(O)c1ccc(-n2cc(CNc3ccc(F)cc3)c(-c3ccc(C(F)(F)F)cc3)n2)cc1
4. O=C1[C@@H]2Cc3c([nH]c4ccccc34)[C@H](c3c(Cl)cccc3Cl)N2C(=O)CN1C1CCN(Cc2c(F)cccc2F)CC1
5. C#C[C@]1(O)CC[C@H]2[C@@H]3CC=C4c5sc(Nc6ccc(OC)nc6)nc5CC[C@]4(C)[C@H]3CC[C@@]21C
6. CN(C)C(=O)C1=NC(CO)C(=O)N(c2ccc(Cl)cc2)N1 (stereo unspecified)
7. CN1C(=O)N(C)C2C1NN=c1s/c(=C\c3ccccn3)c(=O)n12 (stereo unspecified)
8. COc1cnc2c(c1)C(=O)c1c-2n(CCCNCC2CC2)c(=O)c2cc(F)ccc12

["55.5% (inactive)", "-88.6% (active)", "67.2% (inactive)", "74.9% (inactive)", "32.6% (inactive)", "82.5% (inactive)", "91.3% (inactive)", "-81.7% (active)"]

For every item below, please supply its growth.
1. CCN1CCN(c2cc(C(=O)Nc3nc4ccc(Oc5ccnc(C(=O)NC)c5)cc4s3)cc(C(F)(F)F)c2)CC1
2. Nc1nc(-c2cccc([N+](=O)[O-])c2)c(N=Nc2ccccc2[N+](=O)[O-])s1
3. C/C=C/[C@@H]1C=C[C@@H]2C[C@H](C)CC[C@H]2[C@]1(C)/C(O)=C1/C(=O)[C@H](CO)N(C)C1=O
4. CS(=O)c1nccc(-c2c(-c3ccc(F)c(OCCc4ccc(F)cc4)c3)nc3sccn23)n1 (stereo unspecified)
5. Nc1ccc(-c2nnc(SCc3ccc(O)c4ncccc34)n2-c2ccccc2)cc1
6. CC(c1ccccc1)N1C(=O)/C(=C/c2csc(C#N)n2)SC1=S (stereo unspecified)
7. O=C(/C=C/c1cccc(O)c1)c1ccc(O)cc1

-63.3% (active)
-36.4% (active)
56.2% (inactive)
-45.1% (active)
4.44% (active)
64.8% (inactive)
72.6% (inactive)
